Listing: EC50 (read off the curve) of selected binders
# study_system: T1, rat IL-21R expressed on cells (rat)
# T1 construct: whole, on cells
# assay_remarks: cell-based ELISA on CHO cells transiently expressing rat IL-21R; HRP anti-human IgG, A450

For record AbT (antibody, human IgG1, V domains shown, CDR3 graft, residue limits derived as for m29; also called VHP/VL9; VHPTM/VL9) VH: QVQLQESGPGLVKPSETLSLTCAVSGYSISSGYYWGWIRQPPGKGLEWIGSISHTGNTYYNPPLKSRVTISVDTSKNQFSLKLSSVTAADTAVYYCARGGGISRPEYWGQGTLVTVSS VL: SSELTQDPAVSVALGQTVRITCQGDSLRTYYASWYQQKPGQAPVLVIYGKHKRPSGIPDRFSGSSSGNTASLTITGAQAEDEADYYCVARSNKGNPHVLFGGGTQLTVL the listed EC50 (read off the curve) is ~1 nM

***
For record AbC (antibody, IgG1, V domains shown, As for AbA: IgG1/lambda, CDR3 graft, residue limits derived; also called VHP/VL11) VH: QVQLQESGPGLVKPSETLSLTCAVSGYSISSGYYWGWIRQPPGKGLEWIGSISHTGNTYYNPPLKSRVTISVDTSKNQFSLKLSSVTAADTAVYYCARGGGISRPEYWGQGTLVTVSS VL: SSELTQDPAVSVALGQTVRITCQGDSLRTYYASWYQQKPGQAPVLVIYGKHKRPSGIPDRFSGSSSGNTASLTITGAQAEDEADYYCSSRSRHGNPHVLFGGGTQLTVL the listed EC50 (read off the curve) is ~1 nM
